Cited source: a melting point compilation (Tetko et al.)

# condition_info: a range is the spread between reports
outcome_measure: melting point

Prompt: Quick one: melting point of Nc1cccc(N)c1 ?
Completion: 63 to 65 °C

###

# condition_info: a range is the spread between reports
Overview of reported melting point across a group of molecules:

INSERT INTO results (structure_as_smiles, recorded_measurement) VALUES
  ('CCC1(C2=CCCCC2)C(=O)NC(=O)NC1=O', '172 to 173 °C');

Prompt: Quick one: melting point of c1ccc(P(CCCP(c2ccccc2)c2ccccc2)c2ccccc2)cc1 ?
Completion: 60 to 61 °C

Prompt: Quick one: melting point of Brc1sc(Br)c(Br)c1Br ?
Completion: 115 to 118 °C

Prompt: Quick one: melting point of CCc1ccccc1Br ?
Completion: -68 to -67.9 °C

Prompt: Quick one: melting point of C/C=C/c1ccccc1 ?
Completion: -29.3 to -27.1 °C

###

Overview of reported melting point across a group of molecules:
# condition_info: a range is the spread between reports

INSERT INTO assay_data (molecule, recorded_measurement) VALUES
  ('COC(=O)CC(=O)OC', '-62 to -61.9 °C'),
  ('COC(C(=O)c1ccccc1)c1ccccc1 (stereo not drawn)', '47 to 49.5 °C');

Prompt: Quick one: melting point of CCCCSCCCC ?
Completion: -80 to -79.7 °C

###

# condition_info: a range is the spread between reports
outcome_measure: melting point

Here's what some known entries look like.
INSERT INTO assay_data (molecule, outcome_measure, recorded_measurement) VALUES
  ('CC(=O)NO', 'melting point', '88 to 90.5 °C'),
  ('CC12CCC(=O)C=C1CCC1C2CCC2(C)C(C(=O)CO)CCC12 (centres undefined)', 'melting point', '142 °C'),
  ('CCOC(=O)CCCCC(=O)OCC', 'melting point', '-20 to -18 °C'),
  ('COc1ccc(CCCC(=O)O)cc1', 'melting point', '57.5 to 59 °C'),
  ('O=C1C=CC(=O)C2C3C=CC(C3)C12 (centres undefined)', 'melting point', '73 to 77.5 °C');

Now, please, on to the next molecule.
Prompt: Quick one: melting point of COC(=O)C(Cl)Cl ?
Completion: -52 to -51.9 °C

###

# condition_info: a range is the spread between reports
outcome_measure: melting point

Prompt: Quick one: melting point of Clc1cccs1 ?
Completion: -72 to -71.9 °C

Prompt: Quick one: melting point of COc1ccc(C=O)cc1 ?
Completion: -1 to 1 °C

Prompt: Quick one: melting point of CCCCCCCC(=O)OCC ?
Completion: -47 to -43.1 °C

Prompt: Quick one: melting point of c1ccc(Cc2ccncc2)cc1 ?
Completion: 10 to 12.4 °C

Prompt: Quick one: melting point of CCCCCCCCCCCC[N+](C)(C)[O-] ?
Completion: 130 to 132 °C

Prompt: Quick one: melting point of Oc1c(Cl)cc(Cl)c2cccnc12 ?
Completion: 180 to 181 °C

Prompt: Quick one: melting point of CCc1cc(C)c(C)cc1C ?
Completion: -14 to -13.5 °C

Prompt: Quick one: melting point of CCCCCC(C)CC (configuration not stated) ?
Completion: -108 °C

Prompt: Quick one: melting point of CCOc1ccc(C=O)cc1 ?
Completion: 13.5 to 14 °C

Prompt: Quick one: melting point of O=C(Nc1ccccc1)c1ccccc1O ?
Completion: 136 to 137 °C

Prompt: Quick one: melting point of Cc1csc(N)n1 ?
Completion: 44 to 45.5 °C

###

Overview of reported melting point across a group of molecules:
# condition_info: a range is the spread between reports

INSERT INTO results (structure_as_smiles, recorded_measurement) VALUES
  ('CCCCCCCCCCCCCCCCCC(=O)O', '68 to 71 °C'),
  ('COC', '-142 to -138 °C'),
  ('COc1ccccc1C(=O)O', '99 to 101 °C'),
  ('CC(C)(C)OC(=O)NCC(=O)O', '87.5 to 89 °C');

Prompt: Quick one: melting point of C=CCCCCC ?
Completion: -120 to -119 °C

Prompt: Quick one: melting point of N#Cc1ccccn1 ?
Completion: 27 to 29 °C

###

Overview of reported melting point across a group of compounds:
# condition_info: a range is the spread between reports

Here's what some known entries look like.
INSERT INTO assay_data (compound, recorded_measurement) VALUES
  ('O=C(O)CCCCCCCCCCCCCCCCCCC(=O)O', '126 to 127 °C'),
  ('O=Cc1cc2c(cc1[N+](=O)[O-])OCO2', '93.5 to 95 °C'),
  ('O=C1c2ccccc2C(=O)c2c(Cl)cccc21', '159 to 163 °C');

Prompt: Quick one: melting point of CC(S)C(=O)O (stereo unspecified) ?
Completion: 11 to 12 °C

Prompt: Quick one: melting point of CCCCCCCCCCC ?
Completion: -26 to -25.6 °C

Prompt: Quick one: melting point of Brc1cc2ccccc2c2ccccc12 ?
Completion: 64 to 64.5 °C

Prompt: Quick one: melting point of COc1cccc([N+](=O)[O-])c1C ?
Completion: 53 to 55 °C

Prompt: Quick one: melting point of Nc1ccc(S(=O)(=O)Nc2ccccn2)cc1 ?
Completion: 190 to 192 °C

###

# condition_info: a range is the spread between reports
Overview of reported melting point across a group of compounds:

Here's what some known entries look like.
INSERT INTO measurements (structure_as_smiles, outcome_measure, recorded_measurement) VALUES
  ('O=[N+]([O-])c1cc([N+](=O)[O-])c2ccccc2c1', 'melting point', '147 to 148 °C'),
  ('COc1ccccc1-c1ccccc1', 'melting point', '29 to 31 °C'),
  ('O=C1c2c(O)cccc2Cc2cccc(O)c21', 'melting point', '179 to 181 °C');

Now, please, on to the next compound.
Prompt: Quick one: melting point of CCC/C=C/C(=O)O ?
Completion: 33 to 36.5 °C

###

# condition_info: a range is the spread between reports
outcome_measure: melting point

INSERT INTO assay_data (molecule, outcome_measure, recorded_measurement) VALUES
  ('O=C(O)C(Cl)(Cl)Cl', 'melting point', '56 to 57.5 °C'),
  ('Cc1ccc[nH]c1=O', 'melting point', '138 to 142 °C'),
  ('Oc1ccccc1I', 'melting point', '38.5 to 43 °C'),
  ('CC(C)CC(C)C(C)C (stereo not given)', 'melting point', '-128 °C');

Now, please, on to the next molecule.
Prompt: Quick one: melting point of CCc1ccc(C)nc1 ?
Completion: -71 to -70.9 °C

###

# condition_info: a range is the spread between reports
outcome_measure: melting point

INSERT INTO measurements (molecule, outcome_measure, recorded_measurement) VALUES
  ('CC(Oc1ccccc1)C(=O)O (stereo unspecified)', 'melting point', '118 °C'),
  ('O=Cc1ccc(Cl)cc1Cl', 'melting point', '71 to 73 °C'),
  ('c1ccc2c(c1)Cc1ccccc1O2', 'melting point', '100 to 102 °C');

Prompt: Quick one: melting point of O=Cc1ccc(-c2ccccc2)cc1 ?
Completion: 59 to 60 °C

###

# condition_info: a range is the spread between reports
outcome_measure: melting point

Here's what some known entries look like.
INSERT INTO results (compound, outcome_measure, recorded_measurement) VALUES
  ('OCc1ccccc1Cl', 'melting point', '70 to 73 °C'),
  ('CC(=O)c1ccc(O)cc1O', 'melting point', '144 to 146 °C'),
  ('CCC#CC(C)C', 'melting point', '-117 °C');

Prompt: Quick one: melting point of O=C1CCCCN1 ?
Completion: 37 to 39.5 °C

Prompt: Quick one: melting point of CCCCCCCCCCCCCCCCCCCCCCCCCCCC ?
Completion: 62 to 64.5 °C

Prompt: Quick one: melting point of ClCCl ?
Completion: -97 to -95 °C

Prompt: Quick one: melting point of CCC1=CCCC1 ?
Completion: -118 °C

Prompt: Quick one: melting point of CN(C)c1cccc2c(S(=O)(=O)Cl)cccc12 ?
Completion: 70 to 72 °C

Prompt: Quick one: melting point of N#CC1=C(C#N)C(=O)C(Cl)=C(Cl)C1=O ?
Completion: 214 to 215 °C

Prompt: Quick one: melting point of C1=CC2C=CC1C2 ?
Completion: -20 to -19.1 °C

Prompt: Quick one: melting point of O=C(O)C1CSCN1 (stereo unspecified) ?
Completion: 195 to 196 °C

Prompt: Quick one: melting point of CN(C)c1ccc(C(=O)O)cc1 ?
Completion: 242 to 243 °C

Prompt: Quick one: melting point of CC(=O)OC(C)C ?
Completion: -73.4 to -73 °C

Prompt: Quick one: melting point of c1ccc(-c2ccccn2)nc1 ?
Completion: 70 to 72 °C

Prompt: Quick one: melting point of c1ccc(CNCCNCc2ccccc2)cc1 ?
Completion: 24 to 26 °C

Prompt: Quick one: melting point of C#CC1(O)CCCC1 ?
Completion: 25 to 27 °C

Prompt: Quick one: melting point of O=C(O)CCSCCC(=O)O ?
Completion: 129 to 131 °C

Prompt: Quick one: melting point of Oc1ccc(I)cc1 ?
Completion: 92 to 94 °C
